// values below are reported binding signal
Molecular target: POU1 (OCT1 POU domain);BOB1 (OBF1, OCA-B) (human;human, UniProt P14859;Q16633 260-458;1-256, |)
Sequence (P14859 260-458, chain 1 of 2): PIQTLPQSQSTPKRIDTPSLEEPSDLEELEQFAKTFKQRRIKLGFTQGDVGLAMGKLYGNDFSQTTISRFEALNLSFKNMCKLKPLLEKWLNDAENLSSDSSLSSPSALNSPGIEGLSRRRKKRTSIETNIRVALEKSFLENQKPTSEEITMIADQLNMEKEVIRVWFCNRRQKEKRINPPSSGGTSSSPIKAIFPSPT
Sequence (Q16633 whole entry, chain 2 of 2, the tested form may be a part): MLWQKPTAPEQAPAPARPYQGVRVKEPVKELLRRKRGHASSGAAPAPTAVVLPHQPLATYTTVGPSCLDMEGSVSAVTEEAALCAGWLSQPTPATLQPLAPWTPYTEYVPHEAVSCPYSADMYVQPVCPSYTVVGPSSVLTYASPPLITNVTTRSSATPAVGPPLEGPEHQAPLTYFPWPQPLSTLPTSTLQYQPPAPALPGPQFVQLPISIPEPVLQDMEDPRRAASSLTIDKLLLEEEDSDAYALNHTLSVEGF
Test: EMSA-SELEX-seq; with BOB1 (ternary complex band); 20 mM Tris-HCl pH 7.6, 140 mM NaCl, 10% glycerol, 0.5 mM EDTA, 0.05% Triton X-100, 0.1 mg/mL BSA, 0.1 mg/mL poly(dI-dC), 5 mM DTT, room temperature, 20 min; high values mean tight binding
Settings: protein: recombinant;recombinant; copies: 1;1; dsDNA, one strand shown

Illustrative cases are given below, each with its answer.
AAAGCAAC :: 0.0281 % of ANNNNAAN 8-mers
AGGGTAAC :: 0.0343 % of ANNNNAAN 8-mers
AACTAAAA :: 0.0386 % of ANNNNAAN 8-mers
AACTTAAT :: 0.0613 % of ANNNNAAN 8-mers
AGGTAAAC :: 0.0792 % of ANNNNAAN 8-mers
AAGGCAAT :: 0.057 % of ANNNNAAN 8-mers
AAATAAAC :: 0.142 % of ANNNNAAN 8-mers
AGCCCAAC :: 0.0105 % of ANNNNAAN 8-mers

stdin: Recorded binding signal of AATGCAAA , please.
stdout: 2.58 % of ANNNNAAN 8-mers

stdin: One more sequence: ACGACAAA
stdout: 0.0222 % of ANNNNAAN 8-mers

stdin: Thanks! And AAAATAAT ?
stdout: 0.153 % of ANNNNAAN 8-mers

stdin: Subsequent entry: ACGACAAT
stdout: 0.025 % of ANNNNAAN 8-mers

// provenance: paper PMC10812921
